experiment: soluble fraction after stress (log2 fold change); higher = more stays soluble; pooled small domains, quantitative proteomics; conditions: stress: pH 4
Classification field: enter 1.0 for soluble fraction (log2) values not below -0.4, 0.0 for values below it.

                            ordered_residues  assigned_label
 0  HMGKVTILSNPVKDALVIMGLHNAETIDVRLFDNTGRLVMQGSQSRMDISSLSPGLYILQVNGKILKVIK             1.0
 1  HMIPEGKWMEDPISEGQIKFIETLIKQAIDSGQDALGAEAKQYLSSGEATKGNASSMIDKLKDAL             0.0
 2  HMILSTNFFRHIVPKEYQTSYGTMKKWLTDHNVIGTNSIPQGIGYRIPTQGLSSTFSFKVVDVLPDR             1.0
 3  HMNTKLKPLYLLDIFREMTDERHRMTVPELLEELQRRGITAERKGIYRDIDALIQYGADIKHTGTGYYLAR             1.0
 4  HMSVTIENQINTYFQTRDKISRDELVALIKKDFANWTDNTINIYVSSLQKRGIIHSLSRGMYALGN             1.0
 5  HMEVKVSGHLEAIGGVYHMKLSWIDDAGKRRRKSKSTGLAERGNKKRANDMLIDFMREQEAEIAASGD             1.0
 6  HMSAEDQRRASQEAAYRFMQVMAGNEAGFEDAARALFAGDNHRFEVLIQSWPDDVRDHVSLLSVDAFA             0.0
 7  HMNQEIELLLREPDFTSAARLAMAINERFTNSARAIDPTSVKVRMPEGLDQASVDFVARLEDIEMSPDT             0.0
 8  HMPAAPVFLQKDLLDAGLIGQADSAARREKLGKILGIGYGNGKVMLQRLNSFGIERDAFEQAVQE             1.0
 9  HMRESRLFQILYQLLTKKKVTAANLAKQFEVSVRTIYRDIDALSSSGIPIYASQGKNGGIQLDEDF             0.0
10  HMGESFEELAREISDDTGSKTEGGETGLFPRGVMAPQFEEAAFLLKVGDISEPIRTKFGYHIIKLKEIKP             1.0
11  HMQAPIFMNETDGKWYFREKYLNDNHEIAYRVHPEGYDQMEDALRNSVNALNEFAAEMKELRKQV             0.0
12  HMEAMITEVKRINYGLISDISKSLDPFKSEGGHIIVDKRTNTFILTDLRANIEKMLWSIEIMD             1.0
13  HMKNLSQAEFMYLFKILAFGSTDPDNHPEMAATGMEIAKMLQGLLLSGNVLADILRKNQNVQFWL             1.0
14  HMLKSGSAVAQARDVILEKGVPVHINEILDALGKGDTREAKASLTSSLAAYVRRGEIFTRPAPNTFGLVEL             1.0
15  HMENNIILNYVKDNLNITEKDAKDLIELLGSDYYHIKNETNKIAAFLDGQPYSFEKIKNLISIDKEY             0.0
16  HMIYWGTMVDKIYEVLSLAGKPLSLMEIYQQVKVFFPNSTKSSIEASMRLDARHRFKYDVEGHVYSLVD             1.0

----------
assay: soluble fraction after stress (log2 fold change); higher = more stays soluble; pooled small domains, quantitative proteomics; conditions: stress: pH 4
This section presents sequences with their documented soluble fraction (log2) values.
Recorded endpoint: soluble fraction (log2)

                            ordered_residues        recorded_endpoint   result
 0  HMDPHEEELLRQLIRGDIAGYEVLFHKYYPTFFAFIKGMTKETVVAEDITQNIFMKVWLNRERLDAA  soluble fraction (log2)   -0.535
 1  HMKEQYDLNDREQQFISLVANGLNNKEIAETLFLSEGTVRNYLSNLLDKLGLRDRTQLAIFFYQHL  soluble fraction (log2)    -1.74
 2  HMVSTSVTVTGDLNVRADSRADSDLVGALIPGQTVTRLAVLDNGWSKIRFDDGAGTVVEGYVLSEYLQADG  soluble fraction (log2)    0.131
 3  HMVTTTEAAKMLLVNAGHDVIKDGLTGASWASNTMKLADADGLLASVATKPNDALPRQYAAQMIYN  soluble fraction (log2)    0.265
 4  HMAPDNDELEKAKKIVNAFIEAKAKGLGVVSLGTKMIDAPVVKRAQKIIDQTIVMGKLSLNWQDEFFN  soluble fraction (log2)    -0.32
 5  HMGMMTLGQRIAQYRKAMGISQEELGGRLGVSRQAVSKWETDAAAPDMENLLALAREFGVSVAELTETP  soluble fraction (log2)    -0.11
 6  HMLNAPFGFRIEDDTLIPIPEEAKVVRQIFRYYLQGMGFGKIAQELNGQDVPGKPWGKERIKYILSNEKYI  soluble fraction (log2)  -0.0934
 7  HMLDLNEVEFYAIENQLKENLKIDSKRFYELVPLIKGYQEDDIIQVLRWLIDNNRIIRHKDESLTWHS  soluble fraction (log2)    -1.02
 8  HMQKTVLAASVYERMKERIMDQYYPPGERLNIDALAIDLAVSPTPIREALARLAAERLITFEAYKGYRVSP  soluble fraction (log2)   -0.637
 9  HMSQQVVTDGVNLRLRYAPSPDAETYKWADGTNRHPEKGERFPYLGDIGDFYRIDYKGLVLYVSKQHTHL  soluble fraction (log2)    -0.34
10  HMSSLTPRETEVLSRMAQGDANTSIAERLVITEKAVQKHINAIFAKLGLAEEPTSARRVLAVLAFLR  soluble fraction (log2)   -0.407
11  HMMNNKEIGTRIAVLRKGMGDSQAKLAERLDVSPQAVSKWETGQSLPDIGNLLKLSWLFRTSINHILEGS  soluble fraction (log2)   -0.384
12  HMGEKFTFGQIAKAKAYAKTYANDMTSAVKNIEAIATGLSKHPEVADTLKKANENQELNRITKLAG  soluble fraction (log2)    0.369
13  HMSWAAQVVDKMTNDQLIKSLNEIVNTGKQLGLDITVEQNGDKNFIMTVKDSKGNVQLVTPIG  soluble fraction (log2)   -0.937
14  HMTSLAEQAYRHIRDKLSNGAFVPGEQLVNRVLATEIGVSVIPVREAINRLATEGLVKHVPGSGAFVRQ  soluble fraction (log2)    0.197
15  HMAEPLMTQIVEIEYADAEGLRENLEQFLTRLDEKTLLGSVLVDRHTNSLIIQAVRSDLERMLPLIETLDR  soluble fraction (log2)    -1.49
16  HMKKIFIDAPLDTMITIPKDTTHHLLTVFRHKMEKPVLVGGSDGRTGVYQIQDVVDGEASAKLVGDIQ  soluble fraction (log2)    0.318

----------
This section presents sequences with their documented soluble fraction (log2) values.
assay: soluble fraction after stress (log2 fold change); higher = more stays soluble; pooled small domains, quantitative proteomics; conditions: stress: pH 4
Recorded endpoint: soluble fraction (log2)

>>> print(df.to_string())
                           ordered_residues   result
0  HMELGRQDSAQLGRWAAGILAKNGKKITGRTMEFFLSRTGDDMENISSELEKLISYTLGREVITEEDIEAV   -0.757
1  HMTIQNSILDEIPNIGASRKRAILEAFGSVHRLRKASPEMISAKVEGIGPEMAQAIHDYLVKHPAT    0.223
2  HMDRYAVRAEELAAALAQYHRHVGVYPENLEDLIAPTGPRGYRGPYLSELPTNPSTSKPDWGYDPATGRVS    0.159
3  HMTMKQVFIETDANVNQKIMLNEKEAHHLFDVLRTSDKETIRVVTNTSQVFLARVQQKPYIYLFDKMTVE    -1.76
4  HMSQSMEVLYTDLTDKDAAAIVEKLEEEKIPYQLEDQGTTILVPPGVKYTTRLKLAAEDLPKG    0.178
5  HMLWTDTKYVTVPDFVGKEPKEIESSYLYNIEYHGEGTKVISQQPAAFSRTIEGGTVRLYLG    0.186
6  HMGQERAVPDVKGQSFDMAQGNISRAGLKAVVTDSVYDSYARPGTVVEQSPIPLAKIKRGGTVYLTLVA  -0.0752
7  HMISRDPYDAGAIKRHFSASGLFSSKELAHYLGKSVSTAKNVLSDLQQQGIVEMVGQGPATKYRFI    0.285

----------
This section presents sequences with their documented soluble fraction (log2) values.
assay: soluble fraction after stress (log2 fold change); higher = more stays soluble; pooled small domains, quantitative proteomics; details: stress: pH 4
Recorded endpoint: soluble fraction (log2)

                            ordered_residues        recorded_endpoint    result
 0  HMAAVPQPQRSETIVYIGGRKFYVHTVQAGETLYSIARLYGVSEQTLVANNPTMADVVKADQNVRIPVPA  soluble fraction (log2)  -0.00329
 1  HMERAPAYPDGLTQREVEVLRLIASGKTDREIAEELFIGVRTVSTHVGNILNKTNSANRTEAASYANQQGL  soluble fraction (log2)     -1.53
 2  HMGDITIPDLQGMSFDQAREKLKALGLSIGKISYTSDTSKDDGVVISQGLQAGGKASKGATVDITINET  soluble fraction (log2)    -0.177
 3  HMSDYVLLYSGLNTSDTTFLAYSFQEKGIRYKMPNPDEIEVRVQDVDQARRIAAGAQLGGQVS  soluble fraction (log2)    -0.297
 4  HMDTNTIIGLRIKALRTEKKYTLKYLSENSGLSIGFLSQLERGMTSVAIDSLDKISKVLDVELSSFFN  soluble fraction (log2)     -0.65
 5  HMEHLTATERHLVAYLEAHLGQVPSLSITKLSQEANVSTASIVRTMKKLGYDGFTAFKHAIKQQLR  soluble fraction (log2)     0.156
 6  HMVMAELRISVDRLQIGNYIKLPLSWRDHPFLLSSFMIKKEEQIQLIRQLRLKHVFIIPEKSDAPPKPA  soluble fraction (log2)     -1.81
 7  HMNRGITVIVNNEEIKMKEKAQYVVVDIFDYIDFDLTVPKGSINITLNGENTPYTASIKDGDVIEVFW  soluble fraction (log2)     -1.56
 8  HMGTIRAPMPGTILKINVVDGDSVTKGDVLLILESMKMENSITSPKTGSVTSVYVSEGDPVQHGETLIDL  soluble fraction (log2)     -1.22
 9  HMKISDLPAAQVYREIVHAWPKAAAYADLAPINNGGMQRWRDVVHEWVLRGYNPANLRGMLEWYKAGIPTR  soluble fraction (log2)    -0.132
10  HMVMNYKKIGKKIADRRILLGITQEELAEKVDSSANYISNIETGIKSGSLIFYIKVANELKLSLDFLFSDE  soluble fraction (log2)    -0.363
11  HMDLSPEQAELAAIRGELGIKIDDYALALNIPRDRLTSYLYGRANVPAEVLISARELRYASSA  soluble fraction (log2)    -0.128
12  HMGNVRSWKGWTSAGGTRVQMRQGDSINSMARRYGVPIQAIVAVNGIDDPAKVQPGQSVIIPTYVY  soluble fraction (log2)     0.118
13  HMNASVIADLFRQTGASVMIHGHTHRPDIHALEANGDAAFRAVLGAWHTEGSMIRVTQDDVTLIAFP  soluble fraction (log2)     0.173
14  HMEQFDFTILRELRKRAGLSIGEVSAESGVSAAVISKLERNRTRAELDTLYRLARVFGITAAELLNLAEA  soluble fraction (log2)     -1.76
15  HMTETIPVSERLFRYLFEEKGKRVQKIQQTSHARVRMERSPYSVVVSGTKDAVEAAMESLKATEKELLEA  soluble fraction (log2)     0.321
16  HMRTYYEILGVSKNASLHEIQKAYRELALKYHPKNNSDPTAEEKFTQINEAYTHLSDAARRRSYDDL  soluble fraction (log2)     0.362
